Just for reference, paper PMC5540273 is where these values come from.

# Test system: BMPR1A
# Reported conditions: concentration: 1 μM, replicates: in singlicate; n = 1;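 further: KINOMEscan kinase panel screen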
Can you tell me %Inh for the items I'm about to list?
Answers are plain numbers, in %.

COc1cc2c(cc1OCCN1CCN(C)CC1)ncc1c3ccc(C#N)cc3[nH]c21
0

Dear colleague, could you please provide %Inh for the compounds listed below?
1. N#Cc1ccc(-c2cc(-c3c[nH]nc3-c3ccccn3)ccn2)cc1 [GW693028]
2. CC(C)Oc1ccc2c(-c3ccnc(Nc4ccc(N5CCN(C)CC5)cc4)n3)cnn2n1 [GW696155]
3. CCCCCc1nc2c(N)ncnc2n1CCCCC [SKF-97255]

0
0
19

---

# System: AURKC
# Reported conditions: concentration: 1 μM, replicates: in singlicate; n = 1
Endpoint label: %Inh (%)
Give bare numbers, in %.

Past entries and their recorded results:
Cc1c2ccc(N(C)c3ccnc(Nc4cccc(S(N)(=O)=O)c4)n3)cc2nn1Cc1ccccc1.Cl.Cl
38
O=c1cc(N2CCOCC2)nc2n(Cc3cccc(C(F)(F)F)c3)ccn12
4
COc1cc2c(cc1OCCN1CCN(C)CC1)ncc1c3ccc(C#N)cc3[nH]c21
33

// for each molecule in input: emit %Inh
1. Cc1c(Cn2c(C)nn3c(=O)cc(N4CCOC(C)C4)nc23)cccc1C(F)(F)F (stereo not drawn)
2. Fc1ccc(-c2nn3c(OCC(F)(F)F)cccc3c2-c2ccncc2)cc1

[8, 0]

Value sought for every listed molecule: %Inh.
1. NS(=O)(=O)c1cccc(-c2ccc3ncc(N4CCOCC4)nc3c2)c1
2. COCCNC(=O)c1ccc(-c2cc(C(=O)NC3CC3)cc(F)c2C)cc1
3. Cc1cccc(-c2nc(-c3ccc(S(C)(=O)=O)cc3)sc2-c2ccncc2)c1
4. COc1ccc(S(=O)(=O)NC2CCN(c3cc(C)nc(Nc4cccc(C#N)c4)n3)CC2)cc1.O=C(O)C(F)(F)F
5. [2H]C([2H])(c1cccc(C(F)(F)F)c1C)n1ccn2c(=O)nc(N3CCOCC3)cc12

1. 0
2. 0
3. 0
4. 0
5. 13

// for each molecule below, give its %Inh
1. NS(=O)(=O)c1cccc(-c2ccc3nccc(-c4cccc(S(N)(=O)=O)c4)c3c2)c1
2. O=C(Nc1cccc(-c2nn3ncccc3c2-c2ccnc(Nc3cccc(C(F)(F)F)c3)n2)c1)c1c(F)cccc1F
3. c1ccc(-c2n[nH]cc2-c2ccnc3ccccc23)nc1

[0, 56, 10]

Hi there! I need %Inh for each item below, if you can.
1. COc1ccc(Nc2nccc(N3CCC(NC(=O)Nc4cc(C)ccc4C)C3)n2)cc1 (stereo not drawn)
2. O=C(NOCC1CC1)c1ccc(F)c(F)c1Nc1ccc(I)cc1Cl
3. COc1cc(Nc2nccc(N3CCC(NC(=O)c4cccc(NC(C)=O)c4)C3)n2)cc(OC)c1OC (stereo not drawn)
4. O=C(NCCNc1ccnc(Nc2ccc(F)cc2)n1)c1cc2ccccc2s1
5. CCCCCc1nc2c(N)ncnc2n1CCCCC
6. CC(C)Oc1ccc2c(-c3ccnc(Nc4ccc(N5CCN(C)CC5)cc4)n3)cnn2n1
7. NS(=O)(=O)CCc1cccc(Nc2nccc(-c3c(-c4cccc(NC(=O)c5c(F)cccc5F)c4)nn4ccccc34)n2)c1
8. Cl.Nc1ncnc2occ(-c3ccc(NC(=O)Nc4cc(C(F)(F)F)ccc4F)cc3)c12

46
20
88
32
0
75
72
53
